Overview of reported inhibition at 60 min, 8.5 μM across a group of compounds:
tested on: UGT2B; test: Measurement of the inhibition of UGT2B activity in vitro (metabolism of nalbuphine in liver microsome, HPLC); details: male, Sprague-Dawley, rat, liver microsomes, probe nalbuphine, % Inhibition (Mean ± SD), Table 6, enhancer 8.5 μM; negative = enhancement

compound="CC(C)[C@@H](C)/C=C/[C@@H](C)[C@H]1CC[C@H]2C3=CC=C4C[C@@H](O)CC[C@]4(C)[C@H]3CC[C@]12C [ergosterol, Ergosterol]" result=-12.5%

Q. // lookup inhibition at 60 min, 8.5 μM for CC1(C)CC[C@]2(C(=O)O)CC[C@]3(C)C(=CC[C@@H]4[C@@]5(C)CC[C@H](O)C(C)(C)[C@@H]5CC[C@]43C)[C@@H]2C1 [oleanolic acid, Oleanolic Acid]
A. -87.2%

###

test system: UGT2B; assay: in vitro; settings: male, Sprague-Dawley, rat, % Inhibition (Mean ± SD)
Each entry below lists one item and its recorded inhibition at 60 min, 85 µM value.
Report the value in % with no unit label.

Examples with their reported inhibition at 60 min, 85 µM follow.
compound=O=C(O)c1ccc(O)c(O)c1 numeric_value=-4.56
compound="O=C1CC(c2ccc(O)c(O)c2)Oc2cc(O)cc(O)c21 (stereo not drawn)" numeric_value=-17.1
compound=CCCCCCCCCCCCO numeric_value=19.5
compound=CC12CCC(CC1)C(C)(C)O2 numeric_value=-12.1

Q. Look at this compound and give its reported inhibition at 60 min, 85 µM. O=c1cc(-c2ccc(O)cc2)oc2cc(O)cc(O)c12
A. 54

Q. Find the recorded inhibition at 60 min, 85 µM belonging to CCCCCCCCCCCCCC(=O)OCC [ethyl myristate, Ethyl Myristate] and report it.
A. -12.1

Q. Entry under review: O=c1c(-c2ccc(O)cc2)coc2c([C@@H]3O[C@H](CO)[C@@H](O)[C@H](O)[C@H]3O)c(O)ccc12 . Reported inhibition at 60 min, 85 µM?
A. 18.3

Q. For C=CC(=C)CCC=C(C)C , what is its reported inhibition at 60 min, 85 µM?
A. 35.3

Q. Could you tell me which inhibition at 60 min, 85 µM is on file for O=C/C=C/c1ccccc1 [trans-cinnamaldehyde, Trans- Cinnamaldehyde] ?
A. -3.1

Q. Requested field: inhibition at 60 min, 85 µM. Item: CC(=O)OCCCc1ccccc1 [3-phenylpropyl acetate, 3-Phenylpropyl Acetate]
A. 17.3

Q. Consider the compound shown here: C=C(C)C1CC=C(C)CC1 (single isomer, unassigned; (+)) [(+)-limonene, (+)-Limonene] What is its recorded inhibition at 60 min, 85 µM?
A. 45.3

###

Test system: UGT2B
Assay: Measurement of the inhibition of UGT2B activity in vitro (metabolism of nalbuphine in liver microsome, HPLC)
Details: Table 6, enhancer 85 μM; negative = enhancement
Experimental: In the following experiment, 27 different kinds of CHEs and 10 different excipients were used as UGT2B inhibitor in this invention. […] The protein amount is determined as follows: • i. […] Measure the absorbance at 550 nm wave length within the 30 min. Measure the concentration of protein in microsome based on the standard curve generated by various bovine albumin concentration and absorbance. […]
Below: a set of entries, each annotated with reported % Inhibition (Mean ± SD).
The reply should contain only the number, in %.

query_smiles=O=c1cc(-c2ccc(O)cc2)oc2cc(O)c([C@@H]3O[C@H](CO)[C@@H](O)[C@H](O)[C@H]3O)c(O)c12 endpoint_label="% Inhibition (Mean ± SD)" numeric_value=−5.528
query_smiles=C[C@@H]1O[C@@H](Oc2c(-c3ccc(O)c(O)c3)oc3cc(O)cc(O)c3c2=O)[C@H](O)[C@H](O)[C@H]1O endpoint_label="% Inhibition (Mean ± SD)" numeric_value=−83.60

Turning now to a further record.
Q. Any idea what its % Inhibition (Mean ± SD) is? The compound is C[C@@H]1O[C@@H](O[C@H]2[C@H](Oc3cc(O)c4c(c3)O[C@H](c3ccc(O)cc3)CC4=O)O[C@H](CO)[C@@H](O)[C@@H]2O)[C@H](O)[C@H](O)[C@H]1O
A. −80.70

###

system: UGT2B; experiment: Measurement of the inhibition of UGT2B activity in vitro (metabolism of nalbuphine in liver microsome, HPLC); details: Table 6, enhancer 85 μM; negative = enhancement
endpoint-label: % Inhibition (Mean ± SD)

compound=O=c1c(O[C@@H]2O[C@H](CO)[C@@H](O)[C@H](O)[C@H]2O)c(-c2ccc(O)c(O)c2)oc2cc(O)cc(O)c12 result="−19.119 ± 21.887%"
compound=C[C@@H]1O[C@@H](OC[C@H]2O[C@@H](Oc3c(-c4ccc(O)c(O)c4)oc4cc(O)cc(O)c4c3=O)[C@H](O)[C@@H](O)[C@@H]2O)[C@H](O)[C@H](O)[C@H]1O result="−29.414 ± 29.485%"
compound="O=c1cc(-c2ccc(O)c(O)c2)oc2cc(O[C@@H]3O[C@H](CO)[C@@H](O)[C@H](O)[C@H]3O)cc(O)c12 [luteolin-7-glucoside, Luteolin-7-Glucoside]" result="−36.109 ± 9.203%"
compound=COc1ccc([C@@H]2CC(=O)c3c(O)cc(O[C@@H]4O[C@H](CO)[C@@H](O)[C@H](O)[C@H]4O[C@@H]4O[C@@H](C)[C@H](O)[C@@H](O)[C@H]4O)cc3O2)cc1 result="−8.448 ± 8.261%"

Q. Which % Inhibition (Mean ± SD) is reported with UGT2B for this entry: O=c1cc(-c2ccc(O)c(O)c2)oc2cc(O)c([C@@H]3O[C@H](CO)[C@@H](O)[C@H](O)[C@H]3O)c(O)c12 ?
A. −127.21 ± 28.005%

Q. API: value(readout=% Inhibition (Mean ± SD), system=UGT2B) for record COc1ccc([C@@H]2CC(=O)c3c(O)cc(O[C@@H]4O[C@H](CO)[C@@H](O)[C@H](O)[C@H]4O[C@@H]4O[C@@H](C)[C@H](O)[C@@H](O)[C@H]4O)cc3O2)cc1O
A. −113.63 ± 8.986%

###

test system: UGT2B; test: Measurement of the inhibition of UGT2B activity in vitro (metabolism of nalbuphine in liver microsome, HPLC); conditions: male, Sprague-Dawley, rat
Reported inhibition at 60 min, 850 µM values for the following compounds.

query_smiles=COc1cc(-c2oc3cc(O)cc(O)c3c(=O)c2O)ccc1O result=107%

Consider now this further compound.
Q. I am curious: what inhibition at 60 min, 850 µM value has been reported for O=c1c(-c2ccc(O)cc2)coc2cc(O)cc(O)c12 ?
A. -9.2%

###

system: UGT2B; test: in vitro; details: male, Sprague-Dawley, rat, % Inhibition (Mean ± SD)
endpoint-label: inhibition at 60 min, 425 μM (%)
Reply numerically in %, unit not repeated.

Q. Reported inhibition at 60 min, 425 μM for O=c1c(-c2ccc(O)cc2)coc2cc(O)ccc12 : what is it?
A. -138

###

test: in vivo; conditions: male, Sprague-Dawley, rat, serum, po, 100 mg/kg
endpoint-label: MRT (h)
Please state the figure in h; there is no need to write the unit.

Q. Which MRT reading was recorded for the compound Oc1ccc2c3c1O[C@H]1[C@@H](O)CC[C@@]4(O)[C@@H](C2)N(CC2CCC2)CC[C@]314 ?
A. 8.27

###

assay: in vivo; details: male, Sprague-Dawley, rat, serum, po, 100 mg/kg
endpoint-label: Cmax (ng/mL)
Report only the number, with the unit ng/mL understood.

Q. Consider the molecule shown here: Oc1ccc2c3c1O[C@H]1[C@@H](O)CC[C@@]4(O)[C@@H](C2)N(CC2CCC2)CC[C@]314 What is its recorded Cmax?
A. 79

###

test system: UGT2B; experiment: Measurement of the inhibition of UGT2B activity in vitro (metabolism of nalbuphine in liver microsome, HPLC); details: male, Sprague-Dawley, rat
Attribute: inhibition at 60 min, 850 μM
# value in %; strip the unit string

query_smiles=O=c1c(-c2ccc(O)cc2)coc2cc(O[C@@H]3O[C@H](CO)[C@@H](O)[C@H](O)[C@H]3O)ccc12 units_text=% numeric_value=-61

Please examine the following record next.
Q. Please give the measured inhibition at 60 min, 850 μM for this compound: O=c1c(-c2ccc(O)cc2)coc2cc(O)cc(O)c12
A. -9.2

###

system: UGT2B; assay: in vitro; conditions: male, Sprague-Dawley, rat, % Inhibition (Mean ± SD)
Binary call on inhibition at 60 min, 85 μM: T from -10% upward, F beneath that.

Consider the worked cases shown below.
compound="O=C(O)c1ccc(O)c(O)c1 [protocatechuic acid, Protocatechuic acid]" label_class=T
compound="O=c1cc(-c2ccc(O)cc2)oc2cc(O)cc(O)c12 [apigenin, Apigenin]" label_class=T
compound="C[C@H](Cc1ccc(O)c(O)c1)[C@@H](C)Cc1ccc(O)c(O)c1 [nordihydroguaiaretic acid]" label_class=F
compound="CC12CCC(CC1)C(C)(C)O2 [cineole, Cineole]" label_class=F

Q. Could you please find out whether CC1(C)[C@@H](O[C@H]2O[C@H](C(=O)O)[C@@H](O)[C@H](O)[C@H]2O[C@@H]2O[C@H](C(=O)O)[C@@H](O)[C@H](O)[C@H]2O)CC[C@]2(C)[C@H]3C(=O)C=C4[C@@H]5C[C@@](C)(C(=O)O)CC[C@]5(C)CC[C@@]4(C)[C@]3(C)CC[C@@H]12 [glycyrrhizin, Glycyrrhizin] has inhibition at 60 min, 85 μM that meets -10% or exceeds it?
A. F

Q. Check this compound for inhibition at 60 min, 85 μM at or above -10%: COc1c(O)cc(O)c2c(=O)cc(-c3ccccc3)oc12 [wogonin, Wogonin]
A. F

Q. Form field: inhibition at 60 min, 85 μM at least -10%? Entry: CCCCCCCCCCCCCC(=O)OCC [ethyl myristate, Ethyl Myristate]
A. F

Entry source: patent US9415034B2
